# test-target: human Tie2 (Homo sapiens, UniProt Q02763)
# Construct: corresponding to the intracellular domain amino acids 776-1124 was generated by PCR
# Sequence (Q02763 776-1124): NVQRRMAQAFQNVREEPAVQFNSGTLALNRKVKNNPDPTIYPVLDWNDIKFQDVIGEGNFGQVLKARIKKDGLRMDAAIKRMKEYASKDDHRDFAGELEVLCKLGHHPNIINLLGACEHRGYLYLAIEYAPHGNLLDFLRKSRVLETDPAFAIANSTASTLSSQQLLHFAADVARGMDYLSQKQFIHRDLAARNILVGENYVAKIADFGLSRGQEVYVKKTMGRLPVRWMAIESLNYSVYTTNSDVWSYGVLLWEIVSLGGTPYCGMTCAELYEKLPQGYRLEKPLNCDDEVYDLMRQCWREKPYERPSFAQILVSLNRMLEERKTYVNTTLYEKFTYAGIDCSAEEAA
# method-description: Tie2 PLC phosphorylation assay (GST-Tie2, FlashPlate)
# test-conditions: GST-Tie2 intracellular domain, 2 μM cold ATP, 1 hour at 37° C.; read-out: IC 50 Tie2
Items are presented alongside their recorded IC50.
Hi! Could you send only the number? It should be in nM, unit omitted.

O=C(Nc1ncc(-c2cc(C(=O)NCCC3CCNCC3)c3cn[nH]c3n2)s1)Nc1cc(C(F)(F)F)ccc1F
2
O=C(Nc1ncc(-c2cc(C(=O)NCCN3CCNCC3)c3cn[nH]c3n2)s1)Nc1cc(C(F)(F)F)ccc1F
6
CNC(=O)c1cc(-c2cccc(NC(=O)Nc3cc(C(F)(F)F)ccc3F)c2)nc2[nH]ncc12
2700

Supply recorded IC50 for O=C(Nc1ncc(-c2cc(C(=O)NCc3ccncc3)c3cn[nH]c3n2)s1)Nc1cc(C(F)(F)F)ccc1F here.
105

Complete the entry with IC50 for O=C(Nc1ncc(-c2cc(C(=O)NCCO)c3cn[nH]c3n2)s1)Nc1cc(C(F)(F)F)ccc1F
3

Quickly give me recorded IC50 for CN(C)CC(C)(C)CNC(=O)c1cc(-c2cnc(NC(=O)Nc3cc(C(F)(F)F)ccc3F)s2)nc2[nH]ncc12
4

Annotate the compound O=C(Nc1ccc(-c2ccc3c(NC(=O)c4ccsc4)n[nH]c3n2)cc1)Nc1cc(C(F)(F)F)ccc1F with its measured IC50.
7

Specify measured IC50 for O=C(Nc1ncc(-c2cc(C(=O)N3CCOCC3)c3cn[nH]c3n2)s1)Nc1cc(C(F)(F)F)ccc1F .
2

State its IC50 for this compound: O=C(Nc1cccc(-c2cc(C(=O)NCCN3CCOCC3)c3cn[nH]c3n2)c1)Nc1cc(C(F)(F)F)ccc1F
4140

Complete the entry with IC50 for CNC(=O)c1cc(-c2cnc(NC(=O)Nc3cc(C(F)(F)F)ccc3F)s2)nc2[nH]ncc12
8

Note IC50 for the compound shown: O=C(Nc1ncc(-c2cc(C(=O)NCCCN3CCCC3CO)c3cn[nH]c3n2)s1)Nc1cc(C(F)(F)F)ccc1F (centres unmarked)
9

Data credit: patent US8058290B2
